# measurement parameters: in water, 323.15 K

{"columns": ["given smiles", "solubility (mole fraction)"],
 "data": [
  ["CC[n+]1ccccc1.F[P-](F)(F)(F)(F)F", 0.0026]
]}

###

# measurement parameters: in ethanol, 333.15 K
observable: solubility (mole fraction)

{"columns": ["given smiles", "observable", "measured number"],
 "data": [
  ["CC[n+]1ccccc1.F[P-](F)(F)(F)(F)F", "solubility (mole fraction)", 0.00252]
]}

###

# measurement parameters: in ethanol, 283.15 K

{"columns": ["given smiles", "solubility (mole fraction)"],
 "data": [
  ["CC[n+]1ccccc1.F[P-](F)(F)(F)(F)F", 0.000121]
]}
